experiment-description: chemical genetic growth profiling, strain panel (AID 1159580);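 further: tested at 20 µM; growth read once vehicle control cultures reached saturation at 30 °C; 1 = growth at the plate median or of vehicle wells; lower values mean less growth of the strain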
assay-setup: S. cerevisiae deletion strains, growth OD, locus YDR392W, strain spt3, stronger effect = lower value
Out of some 5,500 compounds screened, about 2,000 (36%) were called active. Not shown: some 18% with an inconclusive outcome. The list shows a part of the results.
quantity: normalized growth
In your answer, state the number alone without any accompanying words.

Completed entries (count: 3):
                                   compound  numeric_value
0  CC1(C)O[C@@H]2CC3C4C[C@H](F)C5=CC(=O)CC[C@]5(C)C4[C@@H](O)C[C@]3(C)[C@]2(C(=O)CO)O1 (some centres not stated)          0.931
1        CN(C)CC[C@H](c1ccc(Cl)cc1)c1ccccn1           1.01
2                                C=CCSSCC=C          0.901

Lookup: Given the entry O=C(Oc1ccccc1C(=O)O)c1ccccc1O , report its measured normalized growth.
Found: 1

Lookup: Given the entry C=CCSC[C@@H](N)C(=O)O , report its measured normalized growth.
Found: 0.996

Lookup: Given the entry C=CCSCC=C , report its measured normalized growth.
Found: 0.916

Lookup: Given the entry CC(=O)Oc1ccccc1C(=O)Oc1ccccc1C(=O)O , report its measured normalized growth.
Found: 0.954

* * *

normalized growth listing for selected compounds.
experiment-description: chemical genetic growth profiling, strain panel (AID 1159580)
assay-setup: S. cerevisiae deletion strains, growth OD, locus YDR101C, strain arx1, stronger effect = lower value
Hit rate of the full screen: of about 5,500 compounds, about 2,000 (36%) were called active. Roughly 18% stayed inconclusive and do not appear here. The list shows a part of the results.
In your answer, state the number alone without any accompanying words.

Lookup: Given the entry COC(=O)[C@H]1[C@H]2C[C@H]3c4[nH]c5cc(OC)ccc5c4CCN3C[C@H]2C[C@@H](OC(=O)c2cc(OC)c(OC)c(OC)c2)[C@@H]1OC , report its measured normalized growth.
Found: 0.977

Lookup: Given the entry NS(=O)(=O)c1cc2c(cc1C(F)(F)F)NC(Cc1ccccc1)NS2(=O)=O (stereo not drawn) , report its measured normalized growth.
Found: 0.985

Lookup: Given the entry CCCCCC(O)C1C(=O)OC(C)C(O)/C=C/C=C/C=C/C=C/C=C(\C)C(O)CC(O)CC(O)CC(O)CC(O)CC(O)CC1O (stereo not drawn) , report its measured normalized growth.
Found: 1.02

* * *

experiment-description: chemical genetic growth profiling, strain panel (AID 1159580);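 further: tested at 20 µM; growth read once vehicle control cultures reached saturation at 30 °C; 1 = growth at the plate median or of vehicle wells; lower values mean less growth of the strain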
assay-setup: S. cerevisiae deletion strains, growth OD, locus YGR252W, strain gcn5, stronger effect = lower value
Among all 5,500 compounds or so, about 2,000 (36%) were called active. About 18% were inconclusive and are not listed. The list shows a part of the results.
The label is 1 for normalized growth below 1 and 0 for normalized growth equal to or exceeding 1.

Past entries and their recorded results:
                                   compound  group
0                                     NCCCN      0
1           COc1cc(C(=O)N2CCOCC2)cc(OC)c1OC      1
2  Cc1c(C(N)=O)cc([N+](=O)[O-])cc1[N+](=O)[O-]      1
3                         N#Cc1c(Cl)cccc1Cl      0
4            O=C(/C=C(\O)c1ccccc1)c1ccccc1O      1
5  COC1=CC(C)[C@@H]2C[C@H]3OC(=O)C[C@H]4C(C)=C(OC)C(=O)C([C@@]34C)[C@@]2(C)C1=O (some centres not stated)      0

Pending compound:
Lookup: Regarding NC(=O)c1cc([N+](=O)[O-])cc([N+](=O)[O-])c1 , kindly confirm whether its normalized growth is beneath 1.
Found: 1

* * *

experiment-description: chemical genetic growth profiling, strain panel (AID 1159580);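 further: tested at 20 µM; growth read once vehicle control cultures reached saturation at 30 °C; 1 = growth at the plate median or of vehicle wells; lower values mean less growth of the strain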
assay-setup: S. cerevisiae deletion strains, growth OD, locus YMR129W, stronger effect = lower value
Screen size: about 5,500 compounds; about 2,000 (36%) were called active. Roughly 18% stayed inconclusive and do not appear here. The list shows a part of the results.
quantity: normalized growth
In your answer, state the number alone without any accompanying words.

                                   compound           quantity  numeric_value
0  OC1(c2ccc(Cl)c(C(F)(F)F)c2)CCN(CCCC(c2ccc(F)cc2)c2ccc(F)cc2)CC1  normalized growth         0.0603
1  O=C(CCCN1CCC(O)(c2ccc(Cl)cc2)CC1)c1ccc(F)cc1  normalized growth           1.03
2         COP(N)(=O)SC (stereo unspecified)  normalized growth          0.992

Lookup: Given the entry O=C1CC2(CCCC2)CC(=O)N1CCCCN1CCN(c2ncccn2)CC1 , report its measured normalized growth.
Found: 1.02

Lookup: Given the entry O=C(O)CCc1nc(-c2ccccc2)c(-c2ccccc2)o1 , report its measured normalized growth.
Found: 0.943

Lookup: Given the entry CC(=O)OCC(=O)[C@@]1(O)CCC2C3C[C@H](C)C4=CC(=O)C=CC4(C)C3[C@@H](O)CC21C (stereo partly specified) , report its measured normalized growth.
Found: 1.01

* * *

experiment-description: chemical genetic growth profiling, strain panel (AID 1159580);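 further: tested at 20 µM; growth read once vehicle control cultures reached saturation at 30 °C; 1 = growth at the plate median or of vehicle wells; lower values mean less growth of the strain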
assay-setup: S. cerevisiae deletion strains, growth OD, locus YIL125W, strain kgd1
Screen size: about 5,500 compounds; about 2,000 (36%) were called active. Another 18% or so got no clear call; they are omitted. Cut-off read from the data, not from the text of the source: active = normalized growth mostly below about 0.91 (no sharp cut-off); inconclusive = no clear call, values can overlap the other calls; inactive = mostly above about 0.92. The list shows a part of the results.
Parameter call: string, one of YES (active), NO (inactive)

compound	group
O=C(CCCN1CCC(O)(c2ccc(Cl)cc2)CC1)c1ccc(F)cc1	NO
C[C@@H]1CC[C@@]23CCC4(C)[C@@](C=CC5[C@@]6(C)CC[C@H](O)C(C)(C)C6CC[C@]54C)(OC2=O)C3[C@H]1C (stereo partly specified)	NO
O=C(/C=C(\O)c1ccccc1)c1ccccc1O	NO
C[C@]12CC[C@H](O)C[C@H]1CCC1C2CC[C@]2(C)[C@@H](C3=CC(=O)OC3)[C@@H](O)C[C@]12O (stereo partly specified)	NO
NC(=O)c1ccccc1O	NO

Lookup: Returns: the outcome recorded for CC1(C)O[C@@H]2CC3C4C[C@H](F)C5=CC(=O)CC[C@]5(C)C4[C@@H](O)C[C@]3(C)[C@]2(C(=O)CO)O1 (stereo partly specified) in this assay.
Found: NO

Lookup: Returns: the outcome recorded for C[C@H]1OC(O[C@H]2[C@@H](O)CC(O[C@H]3[C@@H](O)C[C@H](O[C@H]4CC[C@]5(C)C6CC[C@]7(C)[C@@H](C8=CC(=O)OC8)[C@@H](O)C[C@]7(O)[C@@H]6CC[C@@H]5C4)O[C@@H]3C)O[C@@H]2C)C[C@H](O)C1O (stereo partly specified) in this assay.
Found: NO

Lookup: Returns: the outcome recorded for C[C@H]1O[C@@H](O[C@H]2[C@@H](O)C[C@H](O[C@H]3[C@@H](O)C[C@H](O[C@H]4CC[C@]5(C)C6C[C@@H](O)[C@]7(C)[C@@H](C8=CC(=O)OC8)CC[C@]7(O)C6CC[C@@H]5C4)O[C@@H]3C)O[C@@H]2C)C[C@H](O)[C@@H]1O (stereo partly specified) in this assay.
Found: NO

Lookup: Returns: the outcome recorded for O=C(O)c1ccccc1O in this assay.
Found: NO

Lookup: Returns: the outcome recorded for CC(C)=CC1C(CO)C1(C)C (stereo unspecified) in this assay.
Found: NO

Lookup: Returns: the outcome recorded for CC(=O)O[C@@H]1CC2C(C)(CC[C@H](O)C2(C)C)C2CC[C@]3(C)C(=CC(=O)O[C@H]3c3ccoc3)C21C (stereo partly specified) in this assay.
Found: NO

Lookup: Returns: the outcome recorded for CC12CCC3C(CCC4(O)CC(O)CCC34/C=N/NC(N)=O)C1(O)CCC2C1=CC(=O)OC1 (stereo unspecified) in this assay.
Found: NO

Lookup: Returns: the outcome recorded for CO[C@H]1[C@H](O)[C@@H](O[C@H]2CC[C@]3(C=O)C4CC[C@]5(C)[C@@H](C6=CC(=O)OC6)CC[C@]5(O)C4CC[C@@H]3C2)O[C@@H](C)[C@@H]1O (stereo partly specified) in this assay.
Found: NO

Lookup: Returns: the outcome recorded for C[C@]12CCC3C(CC[C@]4(O)C[C@@H](O)CC[C@]34C=O)[C@@]1(O)CCC2C1=CC(=O)OC1 (stereo partly specified) in this assay.
Found: NO

Lookup: Returns: the outcome recorded for CC1(C)S[C@@H]2[C@H](NC(=O)C(C(=O)O)c3ccccc3)C(=O)N2[C@H]1C(=O)O (stereo partly specified) in this assay.
Found: NO

Lookup: Returns: the outcome recorded for Cc1ccc(C(C)C)c(O)c1C(=O)O in this assay.
Found: YES
